target: CAv1.2 (Homo sapiens); assay: FLIPR data, CAv1.2 channel blocking (Table 6); type: cell-based; details: ratio closed/inactivated IC50
Sequence (Q13936 whole entry): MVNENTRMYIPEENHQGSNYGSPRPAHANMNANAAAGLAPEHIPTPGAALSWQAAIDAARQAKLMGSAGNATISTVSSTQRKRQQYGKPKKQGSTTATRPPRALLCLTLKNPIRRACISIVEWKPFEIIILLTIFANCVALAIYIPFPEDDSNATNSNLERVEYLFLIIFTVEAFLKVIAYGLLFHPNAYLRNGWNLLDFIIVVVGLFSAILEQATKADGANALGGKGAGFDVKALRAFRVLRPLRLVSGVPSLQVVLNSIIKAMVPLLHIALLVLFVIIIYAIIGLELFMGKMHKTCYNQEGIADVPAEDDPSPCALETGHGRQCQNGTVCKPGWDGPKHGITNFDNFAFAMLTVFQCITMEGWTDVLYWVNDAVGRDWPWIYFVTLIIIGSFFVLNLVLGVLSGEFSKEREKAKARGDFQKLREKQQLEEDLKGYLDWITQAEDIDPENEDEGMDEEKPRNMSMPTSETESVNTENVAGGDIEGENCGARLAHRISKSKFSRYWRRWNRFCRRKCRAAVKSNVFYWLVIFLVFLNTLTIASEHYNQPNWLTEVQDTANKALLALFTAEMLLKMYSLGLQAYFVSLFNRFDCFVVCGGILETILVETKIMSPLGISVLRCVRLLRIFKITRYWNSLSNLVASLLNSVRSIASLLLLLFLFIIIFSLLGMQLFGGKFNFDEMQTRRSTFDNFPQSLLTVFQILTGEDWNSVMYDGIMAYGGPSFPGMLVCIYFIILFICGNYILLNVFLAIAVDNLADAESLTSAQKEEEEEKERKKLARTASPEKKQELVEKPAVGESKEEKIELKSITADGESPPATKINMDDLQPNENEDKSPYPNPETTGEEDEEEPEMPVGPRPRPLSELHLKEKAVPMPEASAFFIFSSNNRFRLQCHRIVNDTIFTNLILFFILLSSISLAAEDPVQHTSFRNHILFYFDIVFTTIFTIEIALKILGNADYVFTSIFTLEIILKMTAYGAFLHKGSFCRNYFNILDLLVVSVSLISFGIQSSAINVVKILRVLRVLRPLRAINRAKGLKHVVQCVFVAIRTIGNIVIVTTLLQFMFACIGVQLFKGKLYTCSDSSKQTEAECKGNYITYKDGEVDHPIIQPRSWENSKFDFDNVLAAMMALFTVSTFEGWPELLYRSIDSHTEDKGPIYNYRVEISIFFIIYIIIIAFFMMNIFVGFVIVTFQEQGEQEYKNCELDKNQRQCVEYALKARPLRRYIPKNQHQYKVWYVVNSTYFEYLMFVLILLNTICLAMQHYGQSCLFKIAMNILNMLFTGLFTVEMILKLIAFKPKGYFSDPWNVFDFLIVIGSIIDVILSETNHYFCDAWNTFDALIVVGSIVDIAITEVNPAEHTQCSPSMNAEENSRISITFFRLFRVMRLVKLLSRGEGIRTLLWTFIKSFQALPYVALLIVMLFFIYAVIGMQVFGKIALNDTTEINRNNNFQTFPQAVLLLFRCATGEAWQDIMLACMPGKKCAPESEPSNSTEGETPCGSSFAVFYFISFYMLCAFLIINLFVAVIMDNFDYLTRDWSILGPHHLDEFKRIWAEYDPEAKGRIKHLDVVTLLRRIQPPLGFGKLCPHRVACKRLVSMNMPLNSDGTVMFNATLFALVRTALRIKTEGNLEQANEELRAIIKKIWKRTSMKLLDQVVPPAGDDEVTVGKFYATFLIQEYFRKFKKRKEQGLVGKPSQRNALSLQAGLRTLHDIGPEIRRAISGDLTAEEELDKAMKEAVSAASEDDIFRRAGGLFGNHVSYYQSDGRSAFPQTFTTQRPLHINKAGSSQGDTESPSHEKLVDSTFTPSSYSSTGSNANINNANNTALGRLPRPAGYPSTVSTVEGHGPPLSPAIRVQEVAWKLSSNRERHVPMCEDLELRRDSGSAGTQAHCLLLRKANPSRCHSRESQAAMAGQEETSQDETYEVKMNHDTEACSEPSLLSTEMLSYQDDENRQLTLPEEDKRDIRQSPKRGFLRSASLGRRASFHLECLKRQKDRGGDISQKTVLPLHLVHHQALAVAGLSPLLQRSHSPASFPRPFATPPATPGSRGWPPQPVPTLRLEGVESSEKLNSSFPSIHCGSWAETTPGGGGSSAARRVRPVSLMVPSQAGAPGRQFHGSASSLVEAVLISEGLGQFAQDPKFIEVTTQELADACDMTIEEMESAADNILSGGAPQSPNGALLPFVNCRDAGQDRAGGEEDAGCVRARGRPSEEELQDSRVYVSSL
Sequence (P54289 25-1103 partner): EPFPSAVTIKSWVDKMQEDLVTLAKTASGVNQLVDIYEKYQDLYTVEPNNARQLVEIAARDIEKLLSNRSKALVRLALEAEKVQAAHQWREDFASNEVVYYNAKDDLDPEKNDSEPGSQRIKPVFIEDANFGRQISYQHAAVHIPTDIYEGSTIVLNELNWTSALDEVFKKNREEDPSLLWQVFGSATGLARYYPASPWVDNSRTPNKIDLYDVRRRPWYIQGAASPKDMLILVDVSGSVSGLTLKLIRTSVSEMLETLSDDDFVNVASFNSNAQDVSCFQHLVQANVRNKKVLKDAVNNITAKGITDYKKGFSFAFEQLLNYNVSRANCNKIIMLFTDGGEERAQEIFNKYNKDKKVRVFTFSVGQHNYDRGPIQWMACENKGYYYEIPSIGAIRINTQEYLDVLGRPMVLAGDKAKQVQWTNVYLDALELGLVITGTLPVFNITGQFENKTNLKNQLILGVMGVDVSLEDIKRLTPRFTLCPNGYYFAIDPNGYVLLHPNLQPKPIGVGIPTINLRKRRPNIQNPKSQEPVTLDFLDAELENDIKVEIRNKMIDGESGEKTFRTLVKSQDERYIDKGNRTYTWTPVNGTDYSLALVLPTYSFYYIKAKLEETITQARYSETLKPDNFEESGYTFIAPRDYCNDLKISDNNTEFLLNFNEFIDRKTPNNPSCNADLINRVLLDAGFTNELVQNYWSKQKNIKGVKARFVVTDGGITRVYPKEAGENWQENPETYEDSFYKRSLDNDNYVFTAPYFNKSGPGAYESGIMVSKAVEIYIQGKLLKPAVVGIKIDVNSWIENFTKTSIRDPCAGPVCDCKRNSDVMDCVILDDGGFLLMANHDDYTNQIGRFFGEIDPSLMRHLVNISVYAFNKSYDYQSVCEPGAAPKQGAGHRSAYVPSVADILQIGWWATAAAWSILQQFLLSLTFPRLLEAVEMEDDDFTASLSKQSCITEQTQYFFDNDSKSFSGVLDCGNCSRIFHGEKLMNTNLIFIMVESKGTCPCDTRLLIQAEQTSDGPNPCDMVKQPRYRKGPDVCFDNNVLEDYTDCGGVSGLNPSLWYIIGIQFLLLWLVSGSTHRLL
Sequence (Q08289 whole entry partner): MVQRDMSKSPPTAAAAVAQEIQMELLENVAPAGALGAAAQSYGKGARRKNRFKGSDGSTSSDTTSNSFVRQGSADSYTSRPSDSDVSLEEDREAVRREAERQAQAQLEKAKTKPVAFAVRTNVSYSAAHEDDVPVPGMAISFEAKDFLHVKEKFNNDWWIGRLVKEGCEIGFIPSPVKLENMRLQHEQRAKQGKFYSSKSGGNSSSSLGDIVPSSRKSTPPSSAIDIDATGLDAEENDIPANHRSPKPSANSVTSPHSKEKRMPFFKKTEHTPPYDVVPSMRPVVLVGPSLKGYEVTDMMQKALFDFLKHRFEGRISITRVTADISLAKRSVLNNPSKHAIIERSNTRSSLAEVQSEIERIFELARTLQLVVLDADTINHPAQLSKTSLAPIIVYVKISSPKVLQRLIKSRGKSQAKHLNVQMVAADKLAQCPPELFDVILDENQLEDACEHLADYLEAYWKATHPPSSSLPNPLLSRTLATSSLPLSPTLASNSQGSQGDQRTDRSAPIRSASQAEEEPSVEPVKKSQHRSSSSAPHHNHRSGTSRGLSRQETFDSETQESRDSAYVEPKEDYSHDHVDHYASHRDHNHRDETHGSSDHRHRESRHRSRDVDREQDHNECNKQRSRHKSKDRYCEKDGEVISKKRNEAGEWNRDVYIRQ
Param label: returns condition met when CAv1.2 IC50 Ratio closed/inact. < 3, returns condition not met otherwise, including exact equality.

For this compound, is CAv1.2 IC50 Ratio closed/inact. lower than 3? CC(C)(C1CC(CNC(=O)c2cc(C(F)(F)F)n[nH]2)C1)S(=O)(=O)c1cccc(C(F)(F)F)c1 (stereo not shown) [Compound 614]
condition not met

For this compound, is CAv1.2 IC50 Ratio closed/inact. lower than 3? CC(C)([C@H]1C[C@@H](NS(=O)(=O)c2ccc(OC(F)(F)F)cc2)C1)S(=O)(=O)c1cccc(C(F)(F)F)c1 [Compound 630]
condition not met

For this compound, is CAv1.2 IC50 Ratio closed/inact. lower than 3? CC(C)([C@H]1C[C@H](NC(=O)c2ccc(Cl)c(F)c2)C1)S(=O)(=O)c1cc(F)cc(C(F)(F)F)c1 [Compound 596]
condition met

For this compound, is CAv1.2 IC50 Ratio closed/inact. lower than 3? CC(C)([C@H]1C[C@H](NC(=O)c2ccc(Cl)c(F)c2)C1)S(=O)(=O)c1cccc(OC(F)(F)F)c1 [Compound 633]
condition not met

For this compound, is CAv1.2 IC50 Ratio closed/inact. lower than 3? CC(C)(C1CC(CNC(=O)c2ccc(Cl)c(F)c2)C1)S(=O)(=O)c1cccc(C(F)(F)F)c1 (stereo not shown) [Compound 617]
condition not met

Continuing:
For this compound, is CAv1.2 IC50 Ratio closed/inact. lower than 3? CC(C)([C@H]1C[C@@H](NS(=O)(=O)c2ccc(C(F)(F)F)cc2Cl)C1)S(=O)(=O)c1cccc(C(F)(F)F)c1 [Compound 627]
condition met

For this compound, is CAv1.2 IC50 Ratio closed/inact. lower than 3? CC(C)S(=O)(=O)c1cc(C(F)(F)F)cnc1C(=O)N[C@H]1C[C@H](C(C)(C)S(=O)(=O)c2cc(F)cc(C(F)(F)F)c2)C1 [Compound 593]
condition met

* * *

target: T-type calcium channel (Homo sapiens, UniProt O95180); experiment: T-type channel blocking, FLIPR data (Table 6); type: cell-based; conditions: CAv3.2, inactivated state, read-out: CAv3.2 IC50 Inact.
ASSAY_READOUT: log10 of IC50 (log10 of the value in nM)
Lab note - IC50 converted to log10 from values in nM.

Worked cases, answers included:
Return reported log10 of IC50. Input compound: `CC(C)([C@H]1C[C@@H](NS(=O)(=O)c2ccc(F)c(Cl)c2)C1)S(=O)(=O)c1cccc(C(F)(F)F)c1`
3.49

Return reported log10 of IC50. Input compound: `O=C(NC[C@H]1C[C@H](S(=O)(=O)c2cccc(OC(F)(F)F)c2)C1)c1ccc(C(F)(F)F)cc1`
3.00

Return reported log10 of IC50. Input compound: `CC(C)([C@H]1C[C@H](CNc2ccc(Cl)c(F)c2)C1)S(=O)(=O)c1cccc(C(F)(F)F)c1`
3.17

Return reported log10 of IC50. Input compound: `CC(C)(C[C@H]1C[C@@H](NC(=O)c2ccc(C(F)(F)F)nc2)C1)S(=O)(=O)c1cccc(C(F)(F)F)c1`
3.44

Continuing:
Return reported log10 of IC50. Input compound: `CC(C)([C@H]1C[C@@H](NS(=O)(=O)c2ccc(OC(F)(F)F)cc2)C1)S(=O)(=O)c1cccc(C(F)(F)F)c1`
3.33

Return reported log10 of IC50. Input compound: `O=C(NC[C@H]1C[C@H](S(=O)(=O)c2cccc(Cl)c2)C1)c1ccc(OCC(F)(F)F)nc1`
3.21

Return reported log10 of IC50. Input compound: `CC(C)([C@H]1C[C@@H](NC(=O)c2cnc(C(F)(F)F)nc2)C1)S(=O)(=O)c1cccc(C(F)(F)F)c1`
4.00

Return reported log10 of IC50. Input compound: N[C@H]1CCCCC1C(=O)NC[C@H]1C[C@H](S(=O)(=O)c2cccc(OC(F)(F)F)c2)C1 (some centres unmarked)
4.00

Return reported log10 of IC50. Input compound: `CC(C)(C[C@H]1C[C@@H](NC(=O)c2ccc(C(F)(F)F)cn2)C1)S(=O)(=O)c1cccc(C(F)(F)F)c1`
3.16

Return reported log10 of IC50. Input compound: `CC(C)([C@H]1C[C@@H](NS(=O)(=O)c2ccc(F)c(Cl)c2)C1)S(=O)(=O)c1cc(F)cc(C(F)(F)F)c1`
3.64

* * *

target: N-type calcium channel subunits (α1B, α2δ, and β3a) (Homo sapiens, UniProt Q00975); assay: Block of Cav2.2 channel, whole cell voltage clamp, manual and PatchXpress; assay type: cell-based; details: Table 5; table follows Assay Example 3 (whole cell voltage clamp / PatchXpress); assay not given
Param label: returns 1 (yes) when IC50 < 2000 nM, returns 0 (no) otherwise, including exact equality.

For this compound, is IC50 lower than 2000 nM? `O=C(N[C@H]1CC[C@H](CS(=O)(=O)c2cccc(C(F)(F)F)c2)CC1)c1ccnc(C(F)(F)F)c1`
0 (no)

Continuing:
For this compound, is IC50 lower than 2000 nM? `O=C(CNC[C@H]1CC[C@@H](S(=O)(=O)c2cccc(C(F)(F)F)c2)CC1)NCC(F)(F)F`
1 (yes)

For this compound, is IC50 lower than 2000 nM? `O=C(NC[C@H]1C[C@H](S(=O)(=O)c2cc(F)cc(C(F)(F)F)c2)C1)c1ccc(F)c(Cl)c1`
1 (yes)

For this compound, is IC50 lower than 2000 nM? `CS(=O)(=O)c1cc(C(F)(F)F)cnc1C(=O)N[C@H]1CC[C@@](F)(S(=O)(=O)c2cc(F)cc(C(F)(F)F)c2)CC1`
1 (yes)

For this compound, is IC50 lower than 2000 nM? `O=C(N[C@H]1C[C@H](CS(=O)(=O)c2cccc(C(F)(F)F)c2)C1)c1ccc(C(F)(F)F)nc1`
0 (no)

For this compound, is IC50 lower than 2000 nM? `O=C(N[C@H]1CC[C@@H](S(=O)(=O)c2cccc(C(F)(F)F)c2)CC1)c1cc(C(F)(F)F)ccn1`
1 (yes)

For this compound, is IC50 lower than 2000 nM? `CC(C)([C@H]1C[C@H](NC(=O)c2ncc(C(F)(F)F)cc2S(C)(=O)=O)C1)S(=O)(=O)c1cccc(C(F)(F)F)c1`
1 (yes)

For this compound, is IC50 lower than 2000 nM? `CC(C)([C@H]1C[C@H](NC(=O)c2ccc(F)c(Cl)c2)C1)S(=O)(=O)c1cccc(C(F)(F)F)c1`
1 (yes)

For this compound, is IC50 lower than 2000 nM? `O=C(NC[C@H]1CC[C@@H](S(=O)(=O)c2cccc(C(F)(F)F)c2)CC1)c1cc(C(F)(F)F)n[nH]1`
1 (yes)

For this compound, is IC50 lower than 2000 nM? `CC(C)(C(=O)N[C@H]1CC[C@@](F)(S(=O)(=O)c2cc(F)cc(C(F)(F)F)c2)CC1)S(=O)(=O)c1cccc(C(F)(F)F)c1`
1 (yes)

For this compound, is IC50 lower than 2000 nM? `Cc1nn(C)c(C)c1S(=O)(=O)NC[C@H]1C[C@H](S(=O)(=O)c2cccc(C(F)(F)F)c2)C1`
0 (no)

For this compound, is IC50 lower than 2000 nM? `O=C(N[C@H]1CC[C@H](S(=O)(=O)c2cccc(C(F)(F)F)c2)CC1)c1ccnc(Cl)c1`
1 (yes)

For this compound, is IC50 lower than 2000 nM? CC1(S(=O)(=O)c2cccc(C(F)(F)F)c2)CCC(NC(=O)CCC(F)(F)F)CC1 (stereo not shown)
1 (yes)

For this compound, is IC50 lower than 2000 nM? `O=C(N[C@H]1C[C@H](CS(=O)(=O)c2cccc(C(F)(F)F)c2)C1)c1ccc(F)c(C(F)(F)F)c1`
1 (yes)

For this compound, is IC50 lower than 2000 nM? `Cn1nc(C(F)(F)F)cc1NC(=O)[C@H]1C[C@H](S(=O)(=O)c2cccc(C(F)(F)F)c2)C1`
0 (no)

For this compound, is IC50 lower than 2000 nM? `O=C(N[C@H]1CC[C@](F)(S(=O)(=O)c2cccc(C(F)(F)F)c2)CC1)c1ccc(F)c(C(F)(F)F)c1`
1 (yes)

* * *

target: human α1G T-type channels (Homo sapiens, UniProt O43497); assay: T-type calcium channel block, whole cell patch clamp, α1G; settings: HEK cells stably expressing human α1G; mainly non-inactivated protocol; values above 10,000 nM represented as 10000
Quick reference for IC50 among some compounds
Numeric only. Scale: nM

Worked cases, answers included:
Provide human α1G T-type channels (Homo sapiens, UniProt O43497) IC50 reading for CN(C(=O)CNCCC(C)(C)S(=O)(=O)c1cccc(C(F)(F)F)c1)C(C)(C)C [Compound 473] .
680

Provide human α1G T-type channels (Homo sapiens, UniProt O43497) IC50 reading for O=C(N[C@H]1CC[C@@](F)(S(=O)(=O)c2cc(F)cc(C(F)(F)F)c2)CC1)c1cn2cc(C(F)(F)F)ccc2n1 [Compound 332] .
1560

Provide human α1G T-type channels (Homo sapiens, UniProt O43497) IC50 reading for CS(=O)(=O)c1cc(C(F)(F)F)ccc1C(=O)NCC1CC(S(=O)(=O)c2cccc(C(F)(F)F)c2)C1 (stereo not shown) [Compound 356] .
9510

With those in mind, consider the next compound.
Provide human α1G T-type channels (Homo sapiens, UniProt O43497) IC50 reading for CN(CCC(C)(C)S(=O)(=O)c1cccc(C(F)(F)F)c1)C(=O)c1cc(C(F)(F)F)nn1C [Compound 509] .
650
